# Tested on: 475296-252-R-J1-PDC spheroid viability
# assay.comment: Anticancer human tumor 475296-252-R-J1-PDC patient-derived rectal carcinoma cell line growth inhibition [PI3K]
# run.parameters: second compound 0.1 µM; first compound 0.00316 µM; hits give low values; spheroids with HUVEC and MSC
viability, T/C listing for selected compounds.
endpoint.label: viability, T/C (%)

CC(=O)c1c(C)c2cnc(Nc3ccc(N4CCNCC4)cn3)nc2n(C2CCCC2)c1=O + COc1c(OCCCN2CCOCC2)ccc2c3n(c(=NC(=O)c4cnc(N)nc4)nc12)CCN3 = 97.6
Cn1ncnc1[C@H]1c2n[nH]c(=O)c3cc(F)cc(c23)N[C@@H]1c1ccc(F)cc1 + CC(Nc1ncnc2nc[nH]c12)c1cc2cccc(Cl)c2c(=O)n1-c1ccccc1 = 96.8
CCN1CCN(Cc2ccc(Nc3ncc(F)c(-c4cc(F)c5nc(C)n(C(C)C)c5c4)n3)nc2)CC1 + CC(Nc1ncnc2nc[nH]c12)c1cc2cccc(Cl)c2c(=O)n1-c1ccccc1 = 87.8
CC(=O)c1c(C)c2cnc(Nc3ccc(N4CCNCC4)cn3)nc2n(C2CCCC2)c1=O + Cc1nc(NC(=O)N2CCCC2C(N)=O)sc1-c1ccnc(C(C)(C)C(F)(F)F)c1 = 107
CCN1CCN(Cc2ccc(Nc3ncc(F)c(-c4cc(F)c5nc(C)n(C(C)C)c5c4)n3)nc2)CC1 + CC(Nc1ccc2c(c1)OCCn1cc(N3C(=O)OCC3C(F)F)nc1-2)C(N)=O = 81.3
CC(=O)c1c(C)c2cnc(Nc3ccc(N4CCNCC4)cn3)nc2n(C2CCCC2)c1=O + CC(Nc1ncnc2nc[nH]c12)c1cc2cccc(Cl)c2c(=O)n1-c1ccccc1 = 94.4

###

viability, T/C by entry:
# System: 475296-252-R-J1-PDC spheroid viability
# assay.comment: Anticancer human tumor 475296-252-R-J1-PDC cell line growth inhibition [PI3K];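 further: spheroids exposed to agents for seven days before readout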
# run.parameters: second compound 1 µM; first compound 10 µM; hits give low values; spheroids with HUVEC and MSC
endpoint.label: viability, T/C (%)

C=CC(=O)N1CCN(c2nc(=O)n(-c3c(C)ccnc3C(C)C)c3nc(-c4c(O)cccc4F)c(F)cc23)C(C)C1 (centres undefined) + COc1c(OCCCN2CCOCC2)ccc2c3n(c(=NC(=O)c4cnc(N)nc4)nc12)CCN3 = 69.8
CC1(C)CCC(CN2CCN(c3ccc(C(=O)NS(=O)(=O)c4ccc(NCC5CCOCC5)c([N+](=O)[O-])c4)c(Oc4cnc5[nH]ccc5c4)c3)CC2)=C(c2ccc(Cl)cc2)C1 + CC(Nc1ccc2c(c1)OCCn1cc(N3C(=O)OCC3C(F)F)nc1-2)C(N)=O = 72.8
CC1(C)CCC(CN2CCN(c3ccc(C(=O)NS(=O)(=O)c4ccc(NCC5CCOCC5)c([N+](=O)[O-])c4)c(Oc4cnc5[nH]ccc5c4)c3)CC2)=C(c2ccc(Cl)cc2)C1 + Cc1nc(NC(=O)N2CCCC2C(N)=O)sc1-c1ccnc(C(C)(C)C(F)(F)F)c1 = 73.3
CC1(C)CCC(CN2CCN(c3ccc(C(=O)NS(=O)(=O)c4ccc(NCC5CCOCC5)c([N+](=O)[O-])c4)c(Oc4cnc5[nH]ccc5c4)c3)CC2)=C(c2ccc(Cl)cc2)C1 + CC(Nc1ncnc2nc[nH]c12)c1cc2cccc(Cl)c2c(=O)n1-c1ccccc1 = 91.7

###

# System: 475296-252-R-J1-PDC spheroid viability
# assay.comment: Anticancer human tumor 475296-252-R-J1-PDC cell line growth inhibition [PI3K];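 further: spheroids exposed to agents for seven days before readout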
# run.parameters: second compound 0.1 µM; first compound 10 µM; hits give low values; spheroids with HUVEC and MSC
endpoint.label: viability, T/C (%)

CNC(=O)c1ccc(N2C(=S)N(c3ccc(C#N)c(C(F)(F)F)c3)C(=O)C2(C)C)cc1F + CC(Nc1ccc2c(c1)OCCn1cc(N3C(=O)OCC3C(F)F)nc1-2)C(N)=O = 91.3
CC1(C)CCC(Nc2ncc(C(F)(F)F)c(-c3c[nH]c4c(P(C)(C)=O)c(C#N)ccc34)n2)CN1 (stereo unspecified) + Cc1nc(NC(=O)N2CCCC2C(N)=O)sc1-c1ccnc(C(C)(C)C(F)(F)F)c1 = 91.7
Cn1nccc1Nc1nccc(-c2ccn(C(CO)c3ccc(Cl)c(F)c3)c(=O)c2)n1 (stereo unspecified) + Cc1nc(NC(=O)N2CCCC2C(N)=O)sc1-c1ccnc(C(C)(C)C(F)(F)F)c1 = 75.9
C[C@@H](NC(=O)c1ncnc(N)c1Cl)c1ncc(C(=O)Nc2cc(C(F)(F)F)c(Cl)cn2)s1 + COc1c(OCCCN2CCOCC2)ccc2c3n(c(=NC(=O)c4cnc(N)nc4)nc12)CCN3 = 43.3
CC(C)NCC(C(=O)N1CCN(c2ncnc3c2C(C)CC3O)CC1)c1ccc(Cl)cc1 (stereo unspecified) + CC(Nc1ccc2c(c1)OCCn1cc(N3C(=O)OCC3C(F)F)nc1-2)C(N)=O = 57.8
CC1(C)CCC(CN2CCN(c3ccc(C(=O)NS(=O)(=O)c4ccc(NCC5CCOCC5)c([N+](=O)[O-])c4)c(Oc4cnc5[nH]ccc5c4)c3)CC2)=C(c2ccc(Cl)cc2)C1 + CC(Nc1ncnc2nc[nH]c12)c1cc2cccc(Cl)c2c(=O)n1-c1ccccc1 = 99
C[C@@H](NC(=O)c1ncnc(N)c1Cl)c1ncc(C(=O)Nc2cc(C(F)(F)F)c(Cl)cn2)s1 + Cc1nc(NC(=O)N2CCCC2C(N)=O)sc1-c1ccnc(C(C)(C)C(F)(F)F)c1 = 95.4
CCCS(=O)(=O)Nc1ccc(F)c(C(=O)c2c[nH]c3ncc(-c4ccc(Cl)cc4)cc23)c1F + CC(Nc1ncnc2nc[nH]c12)c1cc2cccc(Cl)c2c(=O)n1-c1ccccc1 = 100
CC(Cn1ccc(-c2ccc(C#N)c(Cl)c2)n1)NC(=O)c1cc(C(C)O)[nH]n1 (stereo unspecified) + CC(Nc1ncnc2nc[nH]c12)c1cc2cccc(Cl)c2c(=O)n1-c1ccccc1 = 84.1
CCCS(=O)(=O)Nc1ccc(F)c(C(=O)c2c[nH]c3ncc(-c4ccc(Cl)cc4)cc23)c1F + CC(Nc1ccc2c(c1)OCCn1cc(N3C(=O)OCC3C(F)F)nc1-2)C(N)=O = 81.9
C#Cc1c(F)ccc2cc(O)cc(-c3ncc4c(N5CC6CCC(C5)N6)nc(OCC56CCCN5CC(F)C6)nc4c3F)c12 (stereo unspecified) + CC(Nc1ccc2c(c1)OCCn1cc(N3C(=O)OCC3C(F)F)nc1-2)C(N)=O = 49

###

# Test system: 475296-252-R-J1-PDC spheroid viability
# assay.comment: Anticancer human tumor 475296-252-R-J1-PDC cell line growth inhibition [PI3K];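 further: spheroids exposed to agents for seven days before readout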
# run.parameters: second compound 0.316 µM; first compound 0.316 µM; hits give low values; spheroids with HUVEC and MSC
Rule: measured viability, T/C below 90% gets YES; anything equal to or greater than 90% gets NO.

Cn1ncc(Cl)c1-c1cc(C(=O)NC(CN)Cc2cccc(F)c2)sc1Cl (stereo not given) + Cc1nc(NC(=O)N2CCCC2C(N)=O)sc1-c1ccnc(C(C)(C)C(F)(F)F)c1 = YES
CNC(=O)c1ccc(N2C(=S)N(c3ccc(C#N)c(C(F)(F)F)c3)C(=O)C2(C)C)cc1F + CC(Nc1ncnc2nc[nH]c12)c1cc2cccc(Cl)c2c(=O)n1-c1ccccc1 = NO
Cn1nccc1Nc1nccc(-c2ccn(C(CO)c3ccc(Cl)c(F)c3)c(=O)c2)n1 (stereo not given) + CC(Nc1ncnc2nc[nH]c12)c1cc2cccc(Cl)c2c(=O)n1-c1ccccc1 = NO
CC1(C)CCC(Nc2ncc(C(F)(F)F)c(-c3c[nH]c4c(P(C)(C)=O)c(C#N)ccc34)n2)CN1 (stereo not given) + CC(Nc1ncnc2nc[nH]c12)c1cc2cccc(Cl)c2c(=O)n1-c1ccccc1 = NO
CNC(=O)c1ccc(N2C(=S)N(c3ccc(C#N)c(C(F)(F)F)c3)C(=O)C2(C)C)cc1F + Cc1nc(NC(=O)N2CCCC2C(N)=O)sc1-c1ccnc(C(C)(C)C(F)(F)F)c1 = YES
CC(C)NCC(C(=O)N1CCN(c2ncnc3c2C(C)CC3O)CC1)c1ccc(Cl)cc1 (stereo not given) + COc1c(OCCCN2CCOCC2)ccc2c3n(c(=NC(=O)c4cnc(N)nc4)nc12)CCN3 = YES
C[C@@H](NC(=O)c1ncnc(N)c1Cl)c1ncc(C(=O)Nc2cc(C(F)(F)F)c(Cl)cn2)s1 + Cc1nc(NC(=O)N2CCCC2C(N)=O)sc1-c1ccnc(C(C)(C)C(F)(F)F)c1 = NO
CCN1CCN(Cc2ccc(Nc3ncc(F)c(-c4cc(F)c5nc(C)n(C(C)C)c5c4)n3)nc2)CC1 + Cc1nc(NC(=O)N2CCCC2C(N)=O)sc1-c1ccnc(C(C)(C)C(F)(F)F)c1 = NO
CNC(=O)c1ccc(N2C(=S)N(c3ccc(C#N)c(C(F)(F)F)c3)C(=O)C2(C)C)cc1F + CC(Nc1ccc2c(c1)OCCn1cc(N3C(=O)OCC3C(F)F)nc1-2)C(N)=O = YES
CNC(=O)c1ccc(N2C(=S)N(c3ccc(C#N)c(C(F)(F)F)c3)C(=O)C2(C)C)cc1F + COc1c(OCCCN2CCOCC2)ccc2c3n(c(=NC(=O)c4cnc(N)nc4)nc12)CCN3 = YES
C#Cc1c(F)ccc2cc(O)cc(-c3ncc4c(N5CC6CCC(C5)N6)nc(OCC56CCCN5CC(F)C6)nc4c3F)c12 (stereo not given) + CC(Nc1ccc2c(c1)OCCn1cc(N3C(=O)OCC3C(F)F)nc1-2)C(N)=O = YES
CC1(C)CCC(CN2CCN(c3ccc(C(=O)NS(=O)(=O)c4ccc(NCC5CCOCC5)c([N+](=O)[O-])c4)c(Oc4cnc5[nH]ccc5c4)c3)CC2)=C(c2ccc(Cl)cc2)C1 + CC(Nc1ncnc2nc[nH]c12)c1cc2cccc(Cl)c2c(=O)n1-c1ccccc1 = NO
CC1(C)CCC(Nc2ncc(C(F)(F)F)c(-c3c[nH]c4c(P(C)(C)=O)c(C#N)ccc34)n2)CN1 (stereo not given) + CC(Nc1ccc2c(c1)OCCn1cc(N3C(=O)OCC3C(F)F)nc1-2)C(N)=O = NO
Cn1ncc(Cl)c1-c1cc(C(=O)NC(CN)Cc2cccc(F)c2)sc1Cl (stereo not given) + CC(Nc1ccc2c(c1)OCCn1cc(N3C(=O)OCC3C(F)F)nc1-2)C(N)=O = YES
CC(C)NCC(C(=O)N1CCN(c2ncnc3c2C(C)CC3O)CC1)c1ccc(Cl)cc1 (stereo not given) + CC(Nc1ccc2c(c1)OCCn1cc(N3C(=O)OCC3C(F)F)nc1-2)C(N)=O = YES
CC1(C)CCC(CN2CCN(c3ccc(C(=O)NS(=O)(=O)c4ccc(NCC5CCOCC5)c([N+](=O)[O-])c4)c(Oc4cnc5[nH]ccc5c4)c3)CC2)=C(c2ccc(Cl)cc2)C1 + COc1c(OCCCN2CCOCC2)ccc2c3n(c(=NC(=O)c4cnc(N)nc4)nc12)CCN3 = YES
